Where do these numbers come from? They come from ChEMBL document CHEMBL1139776.

# test-details: Oral bioavailability in rat at 3 mg/kg
# Assay type: ADME, organism-based
# measurement-conditions: in vivo
A collection of compounds and their measured bioavailability
Provide the reading as a plain figure in %.

# line-notation, bioavailability, %
measured = [
    ("CN(C)C(=O)Cn1c(-c2ccccc2)c(C2CCCCC2)c2ccc(-c3noc(=O)[nH]3)cc21.O=C(O)C(F)(F)F", 20),
    ("CN(C)C(=O)Cn1c(-c2ccccc2)c(C2CCCCC2)c2ccc(C(=O)O)cc21.O=C(O)C(F)(F)F", 45),
]

// switching to the query compound
Lookup: Please indicate bioavailability recorded for CCS(=O)(=O)NC(=O)c1ccc2c(C3CCCCC3)c(-c3ccccc3)n(CC(=O)N(C)C)c2c1.O=C(O)C(F)(F)F
Found: 24

* * *

# Species: Homo sapiens
# test-details: Protein binding in human plasma assessed as free drug level
# measurement-conditions: read-out: PPB
measured-parameter: fraction unbound
Number only, no unit.

Consider the reported fraction unbound for these compounds:
# line-notation, measured-number
data = [
    ("CN(C)CCS(=O)(=O)NC(=O)c1ccc2c(C3CCCCC3)c(-c3ccccc3)n(CC(=O)N(C)C)c2c1", 0.019),
    ("CN(C)C(=O)Cn1c(-c2ccccc2)c(C2CCCCC2)c2ccc(-c3noc(=O)[nH]3)cc21", 0.001),
]

Lookup: Please indicate fraction unbound recorded for CN(C)C(=O)Cn1c(-c2ccoc2)c(C2CCCCC2)c2ccc(C(=O)NS(=O)(=O)CC(=O)O)cc21
Found: 0.01

* * *

# test-details: Inhibition of HCV NS5B deltaC RNA polymerase
# Design: species or system Hepacivirus hominis
A collection of compounds and their measured IC50
Provide the reading as a plain figure in µM.

Consider the reported IC50 for these compounds:
# compound, measured-number
records = [
    ("CN(C)C(=O)Cn1c(-c2ccccc2)c(C2CCCCC2)c2ccc(C(=O)NS(=O)(=O)CC(=O)O)cc21", 0.029),
    ("Cc1ccccc1-c1c(C2CCCCC2)c2ccc(-c3noc(=O)[nH]3)cc2n1CC(=O)N1CCC(N(C)C)CC1", 0.3),
    ("CCN(CC)CC1CN(C(=O)Cn2c(-c3ccc(OC)cc3)c(C3CCCCC3)c3ccc(C(=O)NS(=O)(=O)CC)cc32)CCO1 (centres undefined)", 0.009),
]

Lookup: Please indicate IC50 recorded for CN(C)C(=O)Cn1c(-c2ccoc2)c(C2CCCCC2)c2ccc(C(=O)NS(=O)(=O)N(C)C)cc21
Found: 0.014

* * *

# Organism: Homo sapiens
# test-details: Protein binding in human plasma assessed as free drug level
# measurement-conditions: read-out: PPB
I would appreciate it if you labelled entries Criterion met when fraction unbound is 0.01 or higher, otherwise Criterion not met.

Sample answers from the record:
# compound, label-class
data = [
    ("CN(C)C(=O)Cn1c(-c2ccccc2)c(C2CCCCC2)c2ccc(C(=O)NS(=O)(=O)Cc3ccccc3)cc21", "Criterion not met"),
    ("CCS(=O)(=O)NC(=O)c1ccc2c(C3CCCCC3)c(-c3ccoc3)n(CC(=O)N(C)C)c2c1", "Criterion not met"),
    ("CN(C)C(=O)Cn1c(-c2ccccc2)c(C2CCCCC2)c2ccc(C(=O)N(C)S(=O)(=O)Cc3ccccc3)cc21", "Criterion not met"),
    ("CN1CCCC(CN(C)C(=O)Cn2c(-c3ccccc3)c(C3CCCCC3)c3ccc(-c4noc(=O)[nH]4)cc32)C1 (stereo not drawn)", "Criterion met"),
    ("CN(C)C1CCN(C(=O)Cn2c(-c3cnn(C)c3)c(C3CCCCC3)c3ccc(-c4noc(=O)[nH]4)cc32)CC1", "Criterion met"),
]

Lookup: Could you tell me if the measured fraction unbound of CN(C)C(=O)Cn1c(-c2ccccc2)c(C2CCCCC2)c2ccc(C(=O)NS(=O)(=O)c3ccccc3)cc21 reaches 0.01 or more?
Found: Criterion not met

Lookup: Could you tell me if the measured fraction unbound of CN(C)C(=O)Cn1c(-c2ccoc2)c(C2CCCCC2)c2ccc(C(=O)NS(=O)(=O)N(C)C)cc21 reaches 0.01 or more?
Found: Criterion met

Lookup: Could you tell me if the measured fraction unbound of CN(C)C(=O)Cn1c(-c2ccccc2)c(C2CCCCC2)c2ccc(C(=O)NS(=O)(=O)N(C)C)cc21 reaches 0.01 or more?
Found: Criterion not met

* * *

# test-details: AUC in rat at 3 mg/kg, po
# Format: ADME, organism-based
# Parameters: dose 3 mg/kg, route oral
# measurement-conditions: plasma
A collection of compounds and their measured AUC
Provide the reading as a plain figure in µM·h.

Consider the reported AUC for these compounds:
# line-notation, measured-number
records = [
    ("CN(C)C(=O)Cn1c(-c2ccccc2)c(C2CCCCC2)c2ccc(-c3noc(=O)[nH]3)cc21", 2),
    ("CCS(=O)(=O)NC(=O)c1ccc2c(C3CCCCC3)c(-c3ccccc3)n(CC(=O)N(C)C)c2c1", 1),
]

Lookup: Please indicate AUC recorded for CN(C)C(=O)Cn1c(-c2ccccc2)c(C2CCCCC2)c2ccc(C(=O)O)cc21
Found: 2

* * *

# test-details: Plasma clearance in rat at 3 mg/kg, po or 3 mg/kg, iv
# Assay type: ADME, organism-based
measured-parameter: clearance (mL/min/kg)
Provide the reading as a plain figure in mL/min/kg.

Consider the reported clearance for these compounds:
# line-notation, units-label, clearance
measured = [
    ("CN(C)C(=O)Cn1c(-c2ccccc2)c(C2CCCCC2)c2ccc(-c3noc(=O)[nH]3)cc21", "mL/min/kg", 12),
    ("CN(C)C(=O)Cn1c(-c2ccccc2)c(C2CCCCC2)c2ccc(C(=O)O)cc21", "mL/min/kg", 32),
]

Lookup: Please indicate clearance recorded for CCS(=O)(=O)NC(=O)c1ccc2c(C3CCCCC3)c(-c3ccccc3)n(CC(=O)N(C)C)c2c1
Found: 51

* * *

# test-details: Inhibition of HCV NS5B deltaC RNA polymerase
# Parameters: species or system Hepacivirus hominis
pIC50: −log10 of the molar value.
I would appreciate it if you labelled entries TRUE when pIC50 is 7 or higher, otherwise FALSE.

# compound, label-class
measured = [
    ("CN(C)C(=O)Cn1c(-c2ccoc2)c(C2CCCCC2)c2ccc(C(=O)NS(=O)(=O)CC(=O)O)cc21", "TRUE"),
    ("CN(C)CC1CN(C(=O)Cn2c(-c3ccoc3)c(C3CCCCC3)c3ccc(-c4noc(=O)[nH]4)cc32)CCO1 (stereo not drawn)", "TRUE"),
]

Consider now this further compound.
Lookup: Could you tell me if the measured pIC50 of CN(C)C1CCN(C(=O)Cn2c(-c3cnn(C)c3)c(C3CCCCC3)c3ccc(-c4noc(=O)[nH]4)cc32)CC1 reaches 7 or more?
Found: FALSE

* * *

# test-details: Dissociation constant, pKa of the compound
# Format: physicochemical
measured-parameter: pKa
Number only, no unit.

# line-notation, measured-number
rows = [
    ("CN(C)C(=O)Cn1c(-c2ccccc2)c(C2CCCCC2)c2ccc(-c3noc(=O)[nH]3)cc21", 4.8),
]

Lookup: Please indicate pKa recorded for CN(C)C(=O)Cn1c(-c2ccccc2)c(C2CCCCC2)c2ccc(C(=O)O)cc21
Found: 4.8

* * *

# test-details: Inhibition of HCV NS5B deltaC RNA polymerase
# Set-up: species or system Hepacivirus hominis
pIC50: −log10 of the molar value.
I would appreciate it if you labelled entries satisfied when pIC50 is 7 or higher, otherwise not satisfied.

Sample answers from the record:
# line-notation, label-class
rows = [
    ("CN(C)C(=O)Cn1c(-c2ccccc2)c(C2CCCCC2)c2ccc(C(=O)NS(=O)(=O)N(C)C)cc21", "satisfied"),
    ("CN(C)CCS(=O)(=O)NC(=O)c1ccc2c(C3CCCCC3)c(-c3ccccc3)n(CC(=O)N(C)C)c2c1", "satisfied"),
]

Lookup: Could you tell me if the measured pIC50 of CN(C)C(=O)Cn1c(-c2ccccc2)c(C2CCCCC2)c2ccc(C(=O)N(C)S(=O)(=O)Cc3ccccc3)cc21 reaches 7 or more?
Found: not satisfied

Lookup: Could you tell me if the measured pIC50 of CN(C)C1CCN(C(=O)Cn2c(-c3ccccc3)c(C3CCCCC3)c3ccc(-c4noc(=O)[nH]4)cc32)CC1 reaches 7 or more?
Found: satisfied
